- Test system: Fibroblast
- ASSAY INFO: Multiplex assay against human fibroblast
- Type: toxicity, cell-based
- ASSAY CONDITIONS: 24 h, 10 µM, compound concentration 10 uM, replicate 1
Sorting guide: entries reporting Population Apoptotic (%) beneath 70% go in the 1 pile, the rest go in the -1 pile.

1. CC(C)C[C@H](NC(=O)[C@H](Cc1ccccc1)NC(=O)CNC(=O)CNC(=O)[C@@H](N)Cc1ccc(O)cc1)C(=O)O | 1
2. CCCCCNC(=N)N/N=C/c1c[nH]c2ccc(OC)cc12.O=C(O)/C=C\C(=O)O [TEGASEROD MALEATE] | -1
3. c1ccc(-c2oc3ncnc(NC[C@@H]4CCCO4)c3c2-c2ccccc2)cc1 | -1
4. CCOC(=O)CCNc1cc(N2CCc3ccccc3CC2)nc(-c2ccccn2)n1 | -1
5. CCCCN(CC)c1nc(C)nc2c1c(C)cn2-c1c(C)cc(C)cc1C.Cl | -1
6. Oc1cccc(-c2nc(N3CCOCC3)c3oc4ncccc4c3n2)c1 | 1
7. CN(c1cc(C(F)(F)F)nc(OCCC(=O)O)n1)c1cccc2c1CCC2 | 1
8. Cc1ccc(NC(=O)Nc2cc(C(F)(F)F)ccc2F)cc1Nc1ccc2c(c1)NC(=O)/C2=C\c1ccc[nH]1 | 1
9. CC[C@H](Nc1ncnc2[nH]cnc12)c1nc2cccc(F)c2c(=O)n1-c1ccccc1 | -1
10. Cl.Cn1c2c(c3ccc(Cl)c(Cl)c31)C(C#N)C1(CCNCC1)NC2=O (centres undefined) | 1
11. C=CC(=O)Nc1cc(-n2c(=O)ccc3cnc4ccc(-c5ccc(NS(C)(=O)=O)cc5)cc4c32)ccc1C | 1
12. CC[C@@]1(O)C(=O)OCc2c1cc1n(c2=O)Cc2cc3ccccc3nc2-1 | -1
